target: BRDT BD1 L/V (Homo sapiens, UniProt Q58F21, L63V); assay: competitive AlphaLISA; assay type: binding
// values below are reported IC50
Write the answer as a number in µM, unit excluded.

Before answering, review these 3 worked examples.
[
  {
    "compound": "C=CC[C@@H](C(=O)OC(C)(C)C)[C@@H]1N=C(c2ccc(Cl)cc2)c2cc(OC)ccc2-n2c(C)nnc21",
    "testedOn": "BRDT BD1 L/V (Homo sapiens, UniProt Q58F21, L63V)",
    "uom": "µM",
    "IC50": 2
  },
  {
    "compound": "C=CC[C@@H](C(=O)OC)[C@@H]1N=C(c2ccc(Cl)cc2)c2cc(OC)ccc2-n2c(C)nnc21 (racemic)",
    "testedOn": "BRDT BD1 L/V (Homo sapiens, UniProt Q58F21, L63V)",
    "uom": "µM",
    "IC50": 2
  },
  {
    "compound": "CC[C@@H](C(=O)N(CC)CC)[C@@H]1N=C(c2ccc(Cl)cc2)c2cc(OC)ccc2-n2c(C)nnc21 (relative stereo)",
    "testedOn": "BRDT BD1 L/V (Homo sapiens, UniProt Q58F21, L63V)",
    "uom": "µM",
    "IC50": 6.31
  }
]

Task: Query the reported IC50 for BRDT BD1 L/V (Homo sapiens, UniProt Q58F21, L63V); item: CCNC(=O)[C@H](CC)[C@@H]1N=C(c2ccc(Cl)cc2)c2ccc(OC)cc2-n2c(C)nnc21 (relative stereo)
Result: 20

Task: Similarly, CCNC(=O)[C@H](C)[C@@H]1N=C(c2ccc(Cl)cc2)c2ccc(OC)cc2-n2c(C)nnc21 (relative stereo) ?
Result: 2.51

Task: Similarly, `C=CC[C@@H](C(=O)OC(C)(C)C)[C@@H]1N=C(c2ccc(Cl)cc2)c2ccc(OC)cc2-n2c(C)nnc21` ?
Result: 3.98

###

molecular target: BRD2 BD1 WT (Homo sapiens); assay: competitive AlphaLISA; type: binding
Sequence (P25440 71-176): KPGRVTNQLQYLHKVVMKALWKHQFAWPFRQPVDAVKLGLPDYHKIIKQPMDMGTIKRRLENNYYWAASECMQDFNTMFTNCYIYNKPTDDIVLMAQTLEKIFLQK
// values below are reported IC50

Before answering, review these 6 worked examples.
[
  {
    "compound": "C=CC[C@@H](C(=O)OC)[C@@H]1N=C(c2ccc(Cl)cc2)c2cc(OC)ccc2-n2c(C)nnc21 (racemic)",
    "reportedResult": "10 µM"
  },
  {
    "compound": "C=CC[C@@H](C(=O)NCC)[C@@H]1N=C(c2ccc(Cl)cc2)c2cc(OC)ccc2-n2c(C)nnc21 (relative stereo)",
    "reportedResult": "50.1 µM"
  },
  {
    "compound": "CCC[C@@H](C(=O)OC)[C@@H]1N=C(c2ccc(Cl)cc2)c2cc(OC)ccc2-n2c(C)nnc21 (relative stereo)",
    "reportedResult": "31.6 µM"
  },
  {
    "compound": "CCNC(=O)[C@H](CC)[C@@H]1N=C(c2ccc(Cl)cc2)c2ccc(OC)cc2-n2c(C)nnc21 (relative stereo)",
    "reportedResult": "> 100 µM"
  },
  {
    "compound": "CCNC(=O)[C@H](C)[C@@H]1N=C(c2ccc(Cl)cc2)c2ccc(OC)cc2-n2c(C)nnc21 (relative stereo)",
    "reportedResult": "39.8 µM"
  },
  {
    "compound": "C=CC[C@@H](C(=O)OC(C)(C)C)[C@@H]1N=C(c2ccc(Cl)cc2)c2cc(OC)ccc2-n2c(C)nnc21",
    "reportedResult": "5.01 µM"
  }
]

Task: IC50 lookup needed for C=CC[C@@H](C(=O)OC)[C@@H]1N=C(c2ccc(Cl)cc2)c2ccc(OC)cc2-n2c(C)nnc21 (relative stereo) , thanks.
Result: 50.1 µM

Task: Similarly, COC(=O)CC1N=C(c2ccc(Cl)cc2)c2cc(OC)ccc2-n2c(C)nnc21 (stereo not shown) ?
Result: 0.316 µM
